biological target: Neuronal acetylcholine receptor; alpha4/beta2 (Rattus norvegicus, UniProt P09483+P12390); assay: Ability of compound to compete with 50 pM of 5-[125I]iodo-A-85,380 for receptor binding sites in rat brain membranes at room temperature
Lab note: compare Ki with 8 pM, writing 1 (yes) if less and 0 (no) if equal or more.

Record excerpt, results attached:
>>> df
                           molecular_string  class_label
0        Brc1ncc(OC[C@@H]2CCN2)cc1-c1cccnc1      1 (yes)
1  Clc1ncc(OC[C@@H]2CCN2)cc1/C=C/c1ccnc(Br)c1      1 (yes)
2    Fc1ccnc[n+]1-c1cc(OC[C@@H]2CCN2)cnc1Cl       0 (no)
3    Clc1ccc(-c2cc(OC[C@@H]3CCN3)cnc2Cl)cn1      1 (yes)

Kindly review the next compound as well.
Q: Could you please tell me whether Ki recorded for Clc1ccc(OC[C@@H]2CCN2)cn1 is less than 8 pM?
A: 0 (no)

###

target: Neuronal acetylcholine receptor; alpha4/beta2 (Rattus norvegicus, UniProt P09483+P12390); experiment: Ability of compound to compete with 50 pM of 5-[125I]iodo-A-85,380 for receptor binding sites in rat brain membranes at room temperature
Reported values of pKi for individual entries
# pKi: negative log10 of molar concentration; output just the value

Example entries and their recorded answers appear below.
>>> df
                           molecular_string  measurement_kind  number
0         Fc1ncc(OC[C@@H]2CCN2)cc1-c1cccnc1               pKi   10.18
1  Fc1cc(/C=C/c2cc(OC[C@@H]3CCCN3)cnc2Cl)ccn1               pKi   11.03
2   Clc1ncc(OC[C@@H]2CCCN2)cc1-c1ccc(Br)nc1               pKi   10.71

Q: Could you please provide reported pKi for Ic1ncc(OC[C@@H]2CCN2)cc1-c1cccnc1 ? Thanks!
A: 10.93

Q: Could you please provide reported pKi for Fc1ncc(/C=C/c2cc(OC[C@@H]3CCN3)cnc2Cl)cc1Br ? Thanks!
A: 11.11

Q: Could you please provide reported pKi for Fc1ccc(-c2cc(OC[C@@H]3CCCN3)cnc2Cl)cn1 ? Thanks!
A: 10.75

###

target: Neuronal acetylcholine receptor; alpha4/beta2 (Rattus norvegicus, UniProt P09483+P12390); assay: Ability of compound to compete with 50 pM of 5-[125I]iodo-A-85,380 for receptor binding sites in rat brain membranes at room temperature
Reported values of Ki for individual entries
Answer with a number only, understood to be in pM.

Example entries and their recorded answers appear below.
>>> df
                           molecular_string  unit_string  number
0  Fc1cc(/C=C/c2cc(OC[C@@H]3CCN3)cnc2Cl)ccn1           pM     3.1
1    Clc1ncc(OC[C@@H]2CCN2)cc1/C=C/c1ccncc1           pM       9
2     Fc1cc(-c2cc(OC[C@@H]3CCN3)cnc2Cl)ccn1           pM     4.8
3     Fc1ccc(-c2cc(OC[C@@H]3CCN3)cnc2Cl)cn1           pM     4.9
4  Clc1ncc(OC[C@@H]2CCCN2)cc1/C=C/c1ccnc(Br)c1           pM     5.6
5    Clc1ncc(OC[C@@H]2CCN2)cc1-c1ccnc(Br)c1           pM     3.3
6   Fc1ncc(-c2cc(OC[C@@H]3CCN3)cnc2Cl)cc1Br           pM       4

Now turn to the next molecule.
Q: Report Ki from Neuronal acetylcholine receptor; alpha4/beta2 (Rattus norvegicus, UniProt P09483+P12390) testing of Clc1ncc(OC[C@@H]2CCN2)cc1-c1ccc(Br)nc1
A: 4.3
